system: MDA-MB-435
Write down one outcome, taken from active, inactive

Consider the worked cases shown below.
MOLECULE: O=C(Nc1ccc(OCc2nnc(-c3ccc(Cl)cc3)o2)c(F)c1)Nc1ccc(Cl)c(C(F)(F)F)c1
LABEL VALUE: inactive
--
MOLECULE: C1CCC([PH+](C2CCCCC2)C2CCCCC2[PH+](C2CCCCC2)C2CCCCC2)CC1.[Au].[CH-]1CCCCC1CC1CCCC[N-]1 (stereo not given)
LABEL VALUE: active
--
MOLECULE: CC(=O)/C=C/c1cn(C(=O)OC(C)(C)C)c2ccc(Br)cc12
LABEL VALUE: inactive
--
MOLECULE: NC(=O)c1csc(C2OC(CO)C(O)C2O)n1 (stereo not given)
LABEL VALUE: inactive
--
MOLECULE: CCOc1ccccc1C(=O)N1CCN(c2cc(Cl)cc(Cl)c2)CC1
LABEL VALUE: active

Entry N#CC1(C(N)=O)C(c2ccc(Cl)cc2)CC(=O)CC1c1ccc(Cl)cc1 (stereo not given) : call = ? inactive

###

system: SK-MEL-2 melanoma; experiment: NCI tumour cell line growth inhibition, 48 h
METRIC: TGI

compound CCN(CC)c1ccc2cc(C(=O)Nc3ccc4[nH]c(C(=O)N5C[C@@H](CCl)c6c5cc(OC(=O)Nc5ccccc5)c5[nH]cc(C)c65)cc4c3)oc2c1 , TGI observed: > 1000 µM

For record O=C1NC(=O)C2C(=O)NC(=O)C1C2c1c(Cl)cccc1Cl (centres undefined) the listed TGI is > 100 µM

Lab note: O=C(CCl)NNC1=Nc2ccc(Cl)cc2SC1 gave TGI of 14 µM

Briefly, TGI measured for COc1cc(C(=O)C/C(CCC(=O)Nc2ccccc2[N+](=O)[O-])=N\NC(N)=O)ccc1O : > 100 µM

// sample CCN1CCC(C)OP1(=O)Cc1ccccc1 (centres undefined) , its TGI was > 100 µM

Value of measured TGI for the entry O=C1CC(c2c[nH]c3ccccc23)C(=O)N1 (centres undefined) : > 100 µM

The measured TGI associated with Cc1ccc2c(C3Cc4ccccc4N3C(=O)/C=C\C(=O)O)c(C)[nH]c2c1 (centres undefined) reads 36 µM

The recorded TGI for CCCCCCCOc1ccc(/C=C\c2cc[n+](CCCCCCCC[n+]3ccc(/C=C\c4ccc(OCCCCCCC)cc4)cc3)cc2)cc1 is 74.3 µM

# TGI (compound: C=C(Br)CNC(=O)Nc1ccc(Cl)c(Cl)c1 ) is 32.8 µM

Note to self: TGI recorded for O=C(OCc1ccc2ccccc2n1)c1cn(C2CC2)c2cc(N3CCN(Cc4ccc5ccccc5n4)CC3)c(F)cc2c1=O was > 100 µM

Query O=C1CCCN1C(=O)CS(=O)(=O)c1ccccc1 yields TGI of > 100 µM

Input O=C1c2cccnc2C(=O)c2c1c(C(=O)NCCCN1CCCCC1)c1ccccn21 . Output TGI: 5.17 µM

So, N#CC1(C(N)=O)C(c2ccc(Cl)cc2)CC(=O)CC1c1ccc(Cl)cc1 (centres undefined) ? Its TGI was 31.1 µM

TGI measured on CN(C)CCCn1c(=O)c2ccccc2c2ccccc21 = 33.5 µM

###

# TGI values compiled below
tested on: MALME-3M melanoma; experiment: NCI tumour cell line growth inhibition, 48 h
Quick note: give the figure in µM, leave out the unit.

Completed entries (count: 10):
COMPOUND SMILES: CC1=C2[C@@H](CC1)[C@]1(C)O[C@@](c3ccccc3)(C[C@H]1OC(=O)CO)[C@H]2OC(=O)/C=C/c1ccccc1
TGI / µM: 42.8
--
COMPOUND SMILES: Cc1cc(S(=O)(=O)Nc2nc3ccccc3nc2-c2cccc([N+](=O)[O-])c2)c(S)cc1Cl
TGI / µM: 37.3
--
COMPOUND SMILES: COc1cc2nc(N3CCCC3)nc(NCCc3ccccc3)c2cc1OC
TGI / µM: 3.38
--
COMPOUND SMILES: CCOC(=O)C1=NOC2(C=C(Br)C(=O)C(Br)=C2)C1
TGI / µM: 1.25
--
COMPOUND SMILES: O=c1[nH]cc(-c2c[nH]c3ccccc23)nc1-c1c[nH]c2ccccc12
TGI / µM: 24.1
--
COMPOUND SMILES: CCCCn1c(N)c(-c2nc3ccccc3o2)sc1=S
TGI / µM: 40.2
--
COMPOUND SMILES: Cc1ccc(/C=C/C(=O)C(C)(C)CN2CCCCC2)cc1
TGI / µM: 29.3
--
COMPOUND SMILES: C[C@]12CC[C@@H]3c4cc(OCC(F)(F)F)c(O)cc4CC[C@H]3[C@@H]1CC[C@@H]2O
TGI / µM: 19
--
COMPOUND SMILES: Cc1ccc(NC(Nc2ccc(C)cc2C)=C(/C=C(\Cl)[N+](=O)[O-])[N+](=O)[O-])c(C)c1
TGI / µM: 7.13
--
COMPOUND SMILES: COc1ccc(C(=O)/C=C/c2ccc(O)c(O)c2)c(OC)c1
TGI / µM: 21.8

// moving on: another record for TGI
Reported TGI of CC1(O)C=CC(=O)C=C1 : 39.5

###

system: SK-MEL-28 melanoma; test: NCI tumour cell line growth inhibition, 48 h
Measured TGI values are reported for all entries that follow.

Answered cases to consult:
COMPOUND: CSc1nc2c(c(=O)[nH]1)N=C(c1ccc([N+](=O)[O-])cc1)CC(c1ccccc1)N2 (stereo not given)
TGI: > 100 µM

COMPOUND: O=C(O)c1cc2c(ncc3c(=O)n(-c4ccccc4)[nH]c32)s1
TGI: > 100 µM

COMPOUND: CCCCCCCCCCCCCCCCCC[n+]1ccc2c(C)c3c(c(C)c2c1)c1cc(O)ccc1n3CC
TGI: 4.98 µM

COMPOUND: O=C(/C=C\c1cccc([N+](=O)[O-])c1)/C=C/c1cccc([N+](=O)[O-])c1
TGI: > 100 µM

COMPOUND: CC(=O)/C=C/c1cn(C(=O)OC(C)(C)C)c2ccc(Br)cc12
TGI: > 68.1 µM

COMPOUND: O=C1OC2(CC1C1(O)C3CC4CC(C3)CC1C4)C1CC3CC(C1)CC2C3 (stereo not given)
TGI: > 100 µM

COMPOUND: C=CC[C@@H](N)C(=O)N(C)[C@@H](C)[C@@H](O)c1ccccc1
TGI: > 100 µM

COMPOUND: O=c1nc(NC2CCCCO2)ccn1CCO (stereo not given)
TGI: > 100 µM

Form: compound = CC(=O)Nc1ccc(C(O)/C(=N/N)c2nc3ccc(Cl)cc3[nH]c2=O)cc1 (stereo not given) ; TGI = > 100 µM

The value of TGI measured for the compound O=C(CSc1nnc(Cc2ccccc2)o1)Nc1ccccc1 turned out to be > 100 µM

###

tested on: MCF7 breast; test: NCI tumour cell line growth inhibition, 48 h
Measured TGI values are reported for all entries that follow.

Please review the following examples before continuing.
COMPOUND: O=C(O)C12C3CCC(CC3)C1(C(=O)O)C1CCC2C1 (stereo unspecified)
TGI: > 100 µM

COMPOUND: CC(=O)/C=C/c1cn(C(=O)OC(C)(C)C)c2ccc(Br)cc12
TGI: 46.5 µM

COMPOUND: COc1cc(C2SCC(=O)N2c2cccc(Cl)c2)cc(OC)c1OC (stereo unspecified)
TGI: > 100 µM

COMPOUND: COc1cc(/C=C/c2nc(NC(=S)Nc3ccccc3)nnc2C)cc(OC)c1OC
TGI: > 100 µM

response.value for CN1c2ccccc2C(=O)NC12CCN(CCCC(=O)c1ccc(F)cc1)CC2 (field: TGI) = > 100 µM

TGI in this record for CC(=O)Nc1ccc(C(O)/C(=N/N)c2nc3ccc(Cl)cc3[nH]c2=O)cc1 (stereo unspecified) : > 100 µM

###

system: OVCAR-8 ovarian; experiment: NCI tumour cell line growth inhibition, 48 h
METRIC: TGI

MOLECULE: COC1C=COC2(C)Oc3c(C)c(O)c4c(c3C2=O)/C(=N/C2CCC(O)OC2C)C=C(NC(=O)/C(C)=C\C(=O)C2CC2C(O)C(C)C(O)C(C)C(OC(C)=O)C1C)C4=O (centres undefined)
METRIC: TGI
READING: 3.89 µM
--
MOLECULE: CCN(CC)c1ccc2cc(C(=O)Nc3ccc4[nH]c(C(=O)N5C[C@@H](CCl)c6c5cc(OC(=O)Nc5ccccc5)c5[nH]cc(C)c65)cc4c3)oc2c1
METRIC: TGI
READING: > 1000 µM
--
MOLECULE: Nc1ccn(C2C=C(CO)C(O)C2O)c(=O)c1 (centres undefined)
METRIC: TGI
READING: > 625 µM

Entry O=[N+]([O-])c1ccc(C=Cc2ccccc2)cc1.[C-]#[O+].[C-]#[O+].[C-]#[O+].[Cr] ; TGI = > 100 µM

The recorded TGI for entry CC(=O)Nc1ccc(SC#N)c2c(NC(C)=O)cccc12 equals > 100 µM

The reported value for CC/C=C\C/C=C\C/C=C\CCCCCCCC(=O)OCC(O)CO (centres undefined) in terms of TGI is > 100 µM

Summary for this molecule, NC(N)=NCCCC(NC(=O)c1cccc2c(=O)c3ccccc3[nH]c12)C(=O)O (centres undefined) : TGI is > 100 µM

Kindly note the recorded TGI for COc1ccc(-c2nc(Nc3cc(C)[nH]n3)c3ccccc3n2)cc1 , which is 99.8 µM

The molecule listed as O=C1CCC(N2Cc3cc(CNC(=O)C(F)(F)c4ccc(Cl)cc4)ccc3C2=O)C(=O)N1 (centres undefined) shows TGI equal to > 100 µM
